Target: interaction between recombinant K-Ras4B G12C mutant protein and cRAF RAS-binding domain (cRAF-RBD) (Homo sapiens, UniProt P01116, G12C)
Sequence (P01116 with tags, fused parts or gaps isoform P01116-2 G12C): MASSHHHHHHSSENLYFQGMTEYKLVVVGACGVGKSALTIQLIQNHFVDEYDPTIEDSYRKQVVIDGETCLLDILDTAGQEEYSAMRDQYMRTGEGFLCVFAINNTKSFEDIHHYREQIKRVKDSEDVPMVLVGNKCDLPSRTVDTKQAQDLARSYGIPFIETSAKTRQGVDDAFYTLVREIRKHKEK
Test: Inhibitory activity on interaction between KRAS G12C and cRAF (Alpha technology)
Conditions: GMPPNP-bound KRAS G12C incubated with compound at 25° C. for 1 hour, then cRAF-RBD; Alpha signal
Method: Interaction between recombinant K-Ras4B G12C mutant protein (amino acids 1-169, SEQ ID NO:2) and cRAF RAS-binding domain (cRAF-RBD, amino acids 50-132, Jena Biosciences GmbH) was measured using Alpha technology (PerkinElmer Inc.). Recombinant KRAS G12C protein with an N-terminal His-tag was expressed in E. coli and purified by affinity chromatography. To prepare GTP-bound form and GDP-bound form of KRAS G12C protein. […]
pIC50: −log10 of the molar value.
Values of pIC50 greater than or equal to 7 map to True; values below map to False.

| compound | qualitative label |
| --- | --- |
| COc1c(-c2cccn3c(C(=O)c4cc(F)c(NC(=O)/C=C/CN[C@H]5CC[C@H](OC)CC5)c(F)c4)ccc23)c(C)cc2c1nc(C)n2C (single isomer, unassigned) [Example 39-1] | False |
| CO[C@H]1CC[C@H](NC/C=C/C(=O)Nc2c(F)cc(C(=O)c3ccc4c(-c5c(Cl)cc6c(ncn6C)c5Cl)cccn34)cc2F)CC1 (single isomer, unassigned) [Example 15-2] | False |
| COc1cc2c(nc(C)n2C)c(Cl)c1-c1cccn2c(C(=O)c3cc(F)c(NC(=O)/C=C/CN[C@H]4CC[C@H](OC)CC4)c(F)c3)ccc12 (single isomer, unassigned) [Example 35-1] | True |
| Cn1cnc2cc(-c3cccn4c(C(=O)c5cc(F)c(NC(=O)/C=C/CNC6CCOCC6)c(F)c5)ccc34)c(C(F)(F)F)cc21 [Example 9] | True |
